B1: LINE1-full (parent)
chain: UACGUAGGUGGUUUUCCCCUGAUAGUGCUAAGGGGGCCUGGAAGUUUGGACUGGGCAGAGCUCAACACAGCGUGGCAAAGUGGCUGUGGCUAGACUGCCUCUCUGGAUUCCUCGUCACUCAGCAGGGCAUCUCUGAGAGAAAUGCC

variants of: B1; test: self-cleavage, relative activity (ratio to wild type); higher = more cleavage; in vitro, sequencing; the parent is a self-cleaving ribozyme
Label t for high-side self-cleavage (at or above 1) and f for low-side self-cleavage (below it).

variant_annotation	cat
A42G A77G	t
A69G A121G	f
U12G U115A	f
A59G U62C	f
U26C A67U	f
U5C U23C	f
U29A U119G	t
G82A A124G	t
U45G G106U	f
C3U U102A	t
A43G U100C	t
A43G G122A	f
U119A G125U	t
G74A U104A	f
U96C A136C	f
G55C C120U	f
C16U A121U	t
C3U U26A	t
A24U G80C	t
A2G G36A	f
